readout.name: melting point

compound=CCOC(=O)c1cc(Cc2cccc3ccccc23)sc1NCC(C)C recorded_result="57 to 59 °C"
compound=CN1COc2cc3c4c(cccc4c21)C(=O)N(O)C3=O recorded_result="263 to 265 °C"
compound="CC(C)C(NC(=O)OCc1cccnc1)C(=O)NC(Cc1ccccc1)C(O)C(Cc1ccccc1)NC(=O)C(NC(=O)OCc1cccnc1)C(C)C (stereo not drawn)" recorded_result="177 to 178 °C"

----------
readout.name: melting point

compound=CCCCOCCOc1ccc(-c2ccc(N3CCOCC3)c(C=CC(=O)O)c2)cc1 recorded_result="155 to 157 °C"
compound="N#CC1CN1C(=O)CCN1C(=O)c2ccccc2C1=O (configuration not stated)" recorded_result="168 to 170 °C"
compound=CC(C)(C)c1ccccc1NC(=O)C(=O)O recorded_result="111 to 113 °C"
compound=CNn1cc(C(=O)O)c(=O)c2ccc(C)nc21 recorded_result="215 to 217 °C"
compound="COc1ccc(Cl)c2c1c1c(n2Cc2ccccc2)CCCC1C(N)=O (configuration not stated)" recorded_result="205 to 208 °C"
compound=O=c1c(-c2cccc(F)c2)coc2c(O)c(O)ccc12 recorded_result="230 °C"
compound=Cc1ccc(C(=O)c2cc(C)n(C)c2)cc1 recorded_result="117 to 119 °C"
compound=COc1nc(C)cc(C)c1C(=O)O recorded_result="210 to 215 °C"
compound=Nc1nc2c(Cc3cccnc3)c[nH]c2c(=O)[nH]1 recorded_result="> 300 °C"
compound=COc1ncc(C(=O)N(C)Cc2cc(C(F)(F)F)cc(C(F)(F)F)c2)c(-c2ccccc2)n1 recorded_result="101 to 102 °C"
compound=CCCCCCCCCCCCCCCCOC[C@H]1CCO[C@H](c2ccccc2)O1 recorded_result="51 to 54 °C"
compound=Cc1cc(-c2cc(=O)c3ccccc3o2)cc(C)c1O recorded_result="255 to 256 °C"
compound=COc1ccnc(CC(C)(C)C(=O)O)c1 recorded_result="150 to 151 °C"
compound="COc1ccc(N(Cc2ccc(N(C)C)cc2)C(=O)C2CCCc3c(O)cccc32)cc1 (configuration not stated)" recorded_result="195 to 197 °C"
compound=Cc1ccc(C(Cl)=NO)cc1 recorded_result="69 to 71 °C"
compound=CCOC(C)=C(C#N)C(=O)Nc1cccc(Cl)c1 recorded_result="166 to 168 °C"
compound=COC(=O)c1ccc(Cc2cn(C)c3ccc(NC(=O)CC4CCCC4)cc23)c(OC)c1 recorded_result="180 to 181 °C"
compound="C=CCC(O)CCCCCCCCCCCCCCCCC (configuration not stated)" recorded_result="48 to 50.5 °C"
compound=NNC(=O)CC1(O)c2ccccc2C=Cc2ccccc21 recorded_result="192 to 194 °C"
compound=CNC(=O)c1ccc(Br)c2nsnc12 recorded_result="156 to 160 °C"
compound=Cc1cc(C)c(S(=O)(=O)OCCCCOS(=O)(=O)c2c(C)cc(C)cc2C)c(C)c1 recorded_result="109 °C"
compound="CN(C)CCCC1(O)c2ccccc2COc2ccc(C3=NC(C)(C)CO3)cc21 (configuration not stated)" recorded_result="166 to 167 °C"
compound=CCN(CC)CCNc1ccc(C2C(C(=O)OC)=C(C)NC(C)=C2C(=O)OC)cc1[N+](=O)[O-] recorded_result="161 °C"
compound=CCNc1nc(N)nc(N)n1 recorded_result="171 °C"
compound=Cc1noc(C(=O)NCCc2ccc(S(N)(=O)=O)cc2)n1 recorded_result="218 to 220 °C"
compound=COC(=O)c1cccc2c1[nH]c1c3cc(Br)ccc3oc21 recorded_result="204 to 205 °C"
compound=Cc1ccccc1-c1cn(C)cc(-c2ccc(Cl)c(Cl)c2)c1=O recorded_result="103 to 106 °C"
compound=Cc1cccc(-c2nsc(=O)o2)c1 recorded_result="82.5 to 84 °C"
compound=CC[C@H](C)[C@H](NC(=O)[C@H](Cc1ccccc1)NC(=O)OCc1ccccc1)C(=O)OC recorded_result="94.5 to 95.5 °C"
compound="CCOC(=O)CC(=O)CC(O)C=Cc1c(C)c(OCc2ccccc2)c(C)c2c1OC(C)(C)CC2 (configuration not stated)" recorded_result="83 to 83.5 °C"
compound=NS(=O)(=O)c1cccc(-c2cc(-c3nc(-c4ccc(C(F)(F)F)cc4F)cc(C(F)(F)F)n3)ccn2)c1 recorded_result="210 °C"
compound="O=C(NCC1CCCO1)c1c[nH]c2ccccc2c1=O (configuration not stated)" recorded_result="205 to 209 °C"
compound=Cc1c(O)c(=O)ccn1CCO recorded_result="164 to 165 °C"
compound=CCOC(=O)c1cnc2onc(C)c2c1O recorded_result="150 to 152 °C"
compound=COc1ccccc1Oc1c(Cl)nc(-c2cccc(OCc3ccccc3)c2)nc1Cl recorded_result="127 to 132 °C"
compound=CCn1c(-c2ccccc2)c(C2=CCC(C(=O)O)(C(=O)O)CC2)c2ccccc21 recorded_result="111 to 112 °C"
compound=COc1cc2c3c(c1)c(=O)c(Cc1cccnc1)cn3-c1cc(Br)ccc1O2 recorded_result="49.7 to 50.9 °C"

----------
# melting point values compiled below
readout.name: melting point

compound=O=C(NCCO)c1ccnc(-c2cccc3cc(Cc4cccc(C(F)(F)F)c4)sc23)c1F recorded_result="110 to 111 °C"
compound=O=S(=O)(Nc1ccccc1CO)C(F)(F)F recorded_result="60 to 61 °C"
compound=COc1ccc(OC)c2c1C(=O)c1ccc(-c3nnn[nH]3)cc1C2=O recorded_result="260 to 262 °C"
compound=O=C(O)c1cc(Br)nc(Br)c1 recorded_result="179 to 187 °C"
compound=CC(C)(C#N)c1cc(CC#N)cc(C(C)(C)C#N)c1 recorded_result="72 to 73 °C"
compound=Cc1ccc(CN2CC=C(/C=C/c3cccc(Cl)c3)CC2)cc1 recorded_result="86 to 88 °C"
compound="CC(NC(=O)c1cc2ccccc2[nH]1)C(=O)N(c1ccccc1)c1ccccc1 (racemic)" recorded_result="242 °C"
compound=Cc1nc(-c2cccc(Cl)c2)n(-c2ccc(S(N)(=O)=O)cc2)n1 recorded_result="146 to 147 °C"
compound="CCCCCCCCCCCCCCCC(=O)OCC1(O)COC(O)(COC(=O)CCCCCCCCCCCCCCC)CO1 (stereo unspecified)" recorded_result="95.2 °C"
compound="CC(C(=O)O)c1ccc(-c2ccccc2F)c(F)c1 (stereo unspecified)" recorded_result="120 to 123 °C"
compound=Cc1cn(-c2cc(C)c3[nH]c(=O)ccc3c2)c(C)n1 recorded_result="322 to 325 °C"

----------
melting point by entry:
readout.name: melting point

compound=O=C(NCc1ccc(Cl)cc1)c1noc2ccc(I)cc2c1=O readout_name="melting point" recorded_result="188 to 190 °C"
compound=COCCOC(=O)C1=C(O)c2ccccc2S(=O)(=O)N1 readout_name="melting point" recorded_result="120 to 122 °C"
compound=CNS(=O)(=O)N=C(NC(=O)OC)C(C)C readout_name="melting point" recorded_result="194 to 199 °C"
compound=O=C1Nc2cccnc2N(C(=O)Cl)c2ccccc21 readout_name="melting point" recorded_result="239 to 240 °C"
compound="CC(C)(C)C(NC(=O)c1cccc(F)c1)Nc1c(Nc2cccnc2)c(=O)c1=O (stereo unspecified)" readout_name="melting point" recorded_result="231 to 232 °C"
compound="CCCOCCOC(=O)C1=C(C)NC(C)=C(c2nc(CCl)no2)C1c1cccc([N+](=O)[O-])c1 (stereo unspecified)" readout_name="melting point" recorded_result="129 to 130 °C"

----------
readout.name: melting point

molecule=Cc1c(C(=O)Nc2ccc(N3CCC(NCCO)CC3)c(C#N)c2)cnn1-c1ccc(C(F)(F)F)cc1 recorded_result="202 °C"
molecule="Cc1nc(N2CCN(CC3CCCCO3)C2=O)sc1C(=O)NCc1cccnc1 (configuration not stated)" recorded_result="174 to 175 °C"
molecule=COC(CCCNC(=O)CCCCC(=O)NCCCC(OC)OC)OC recorded_result="73 to 75 °C"
molecule=CC1(C)CCC(=O)c2c1oc(-c1ccncc1)c2-c1ccccc1 recorded_result="156 to 157 °C"
molecule=COc1cc(/C=C/C(=O)CC(=O)c2ccccc2)ccc1O recorded_result="159 to 162 °C"
molecule=Cc1cccc(-c2n[nH]cc2-c2ccc(F)c(-c3cnc(C(C)(C)O)s3)c2)n1 recorded_result="208 to 210 °C"
molecule=CCOC(=O)C[C@H](NC(=O)/C=C/Sc1ccccc1)C(=O)OCC recorded_result="100 to 102 °C"

----------
readout.name: melting point

item_smiles=CC(C)(C)c1cc(CCc2ccccc2NC(=O)NC2CCN(Cc3ccc(C#N)cc3)CC2)cc(C(C)(C)C)c1O recorded_result="197 to 198 °C"
item_smiles=COP(=S)(OC)Oc1nc(OCc2ccccc2)sc1C#N recorded_result="47 °C"
item_smiles=C#CCc1c(C)nc2c(OCc3ccccc3C)nccn12 recorded_result="123 to 124 °C"
item_smiles=O=C(O)Cc1cccc(Oc2ccccc2Cl)c1O recorded_result="103 to 105 °C"
item_smiles=O=Cc1ccc(-c2cccc3cncn23)cc1 recorded_result="144 to 146 °C"
item_smiles=CC(=O)O[C@H]1CCNC1=O recorded_result="85.5 to 87 °C"
item_smiles=FC(F)c1nc2ccccc2n1-c1nc(Oc2cccnc2)nc(N2CCOCC2)n1 recorded_result="229 to 231 °C"
